Cited source for all entries: ChEMBL document CHEMBL5143597

PROTOCOL DESCRIPTION: Drug distribution in Wistar rat liver 10 mg/kg, po and measured at 1 hrs post dose by LC-MS/MS analysis
Format: ADME, organism-based
RUN PARAMETERS: read-out: Ct
MEASURED METRIC: concentration at 1 h (µM)
Answers are plain numbers, in µM.

What does the data say about its concentration at 1 h? Entry: O=C(Nc1ccc(N2CCC3(CC2)CC(C(=O)O)C3)nc1)c1nnc(Nc2ccc(F)c(F)c2)o1
105

----------
Would you mind telling me the reported fraction unbound of each entry?
PROTOCOL DESCRIPTION: Plasma protein binding in mouse
Type: ADME, cell-free
RUN PARAMETERS: read-out: PPB (converted)
Numbers only.

Here's what some known entries look like.
O=C(O)CC1CCC2(CC1)CCN(c1ccc(NC(=O)c3nnc(Nc4ccc(F)c(F)c4)o3)cn1)CC2 | 0.01
O=C(Nc1ccc(N2CCC3(CC2)CC(C(=O)O)C3)nc1)c1nnc(Nc2ccc(F)c(F)c2)o1 | 0.02
O=C(Nc1ccc(C2CCC3(CC2)CC(C(=O)O)C3)cc1)c1nnc(Nc2ccc(F)c(F)c2)o1 (stereo not given) | 0.02

Now for another entry.
What does the data say about its fraction unbound? Entry: O=C(O)CC1CCC2(CC1)CCC(c1ccc(NC(=O)c3nnc(Nc4ccc(F)c(F)c4)o3)cn1)CC2 (stereo not given)
0.03
